Molecular target: HLA-A*03:01
Test: IEDB peptide-MHC binding, purified MHC/competitive/fluorescence; filed as Kd, often an IC50 or EC50 that approximates it; bounds were set here for any values at or beyond the usual limits of such assays
Details: source organism: Giardia lamblia ATCC 50803
MEASURED QUANTITY: pKd
pKd is defined as minus the log10 of a concentration measured in mol/L.

Enquiry: Find the measured pKd of `KLSSEQLSH` and report it.
Return: 7.23

====

Listed below: Kd values for each entry.
Target: HLA-A*29:02
Experiment: IEDB peptide-MHC binding, purified MHC/direct/fluorescence; filed as Kd, often an IC50 or EC50 that approximates it; bounds were set here for any values at or beyond the usual limits of such assays
Conditions: source organism: West Nile virus

>>> df
   residue_string   result
0       GMSWITQGL  ≥ 20 µM

Enquiry: Find the measured Kd of `GRGPIRFVL` and report it.
Return: ≥ 20 µM

====

Target: HLA-A*31:01
Assay: IEDB peptide-MHC binding, purified MHC/competitive/fluorescence; filed as Kd, often an IC50 or EC50 that approximates it; bounds were set here for any values at or beyond the usual limits of such assays
Settings: source organism: West Nile virus
MEASURED QUANTITY: Kd (nM)
Write the number in nM without appending the unit.

Enquiry: Find the measured Kd of `VLWDTPSPK` and report it.
Return: 33.9

====

Biological target: HLA-A*24:02
Assay: IEDB peptide-MHC binding, purified MHC/direct/fluorescence; filed as Kd, often an IC50 or EC50 that approximates it; bounds were set here for any values at or beyond the usual limits of such assays
Conditions: source organism: Shigella flexneri
MEASURED QUANTITY: Kd

Enquiry: Find the measured Kd of `LSSIGIPAY` and report it.
Return: ≥ 20 µM

====

Molecular target: HLA-B*08:01
Assay: IEDB peptide-MHC binding, purified MHC/direct/fluorescence; filed as Kd, often an IC50 or EC50 that approximates it; bounds were set here for any values at or beyond the usual limits of such assays
Conditions: source organism: Coxiella burnetii
MEASURED QUANTITY: Kd

Enquiry: Find the measured Kd of `EEMPLVWDL` and report it.
Return: ≥ 20 µM

====

Listed below: pKd values for each entry.
Molecular target: HLA-B*57:01
Test: IEDB peptide-MHC binding, purified MHC/competitive/fluorescence; filed as Kd, often an IC50 or EC50 that approximates it; bounds were set here for any values at or beyond the usual limits of such assays
Conditions: source organism: Zaire ebolavirus
pKd: −log10 of the molar value.

   residue_string  result
0       ATEDPSSGY  ≤ 4.70

Now turn to the next sequence.
Enquiry: # assay system HLA-B*57:01: give pKd of `TGIVSSMHY`
Return: ≤ 4.70

====

Listed below: pKd values for each entry.
Molecular target: HLA-A*32:01
Assay: IEDB peptide-MHC binding, purified MHC/competitive/radioactivity; filed as Kd, often an IC50 or EC50 that approximates it; bounds were set here for any values at or beyond the usual limits of such assays
Details: source organism: Dengue virus 3 Martinique/1243/1999
pKd is defined as minus the log10 of a concentration measured in mol/L.

In [3]: df
Out[3]:
   residue_string  numeric_readout
0      FTLTVAWRTA             5.03

Enquiry: Find the measured pKd of `TLKRRSWPLN` and report it.
Return: 4.72

Enquiry: Find the measured pKd of `WIEDNPWMED` and report it.
Return: 5.38

Enquiry: Find the measured pKd of `WMVHRQWFFD` and report it.
Return: 5.30
